Where do these numbers come from? They come from ChEMBL document CHEMBL1132962.

// reported K ass per item
target: Prothrombin (Homo sapiens) (UniProt P00734); assay: Apparent association constant against Coagulation factor II

1) CCc1ccc(C(=O)Nc2cc(O)ccc2NC(=O)c2ccc(OC)cc2)cc1; 40000 l M-1
2) COc1ccc(C(=O)Nc2ccccc2NC(=O)c2ccc(C(C)(C)OC)cc2)cc1; 20000 l M-1
3) COc1ccc(C(=O)Nc2ccc(O)cc2NC(=O)c2ccc(C(C)(C)C)cc2)cc1; 40000 l M-1
4) COc1ccc(C(=O)Nc2ccc(C)cc2NC(=O)c2ccc(OC)cc2)cc1; 20000 l M-1

The record that follows has no K ass shown yet.
# input Param readout= K ass; system= Prothrombin (Homo sapiens) (UniProt P00734); entry= `COc1ccc(C(=O)Nc2ccc(NS(C)(=O)=O)cc2NC(=O)c2ccc(C(C)(C)C)cc2)cc1` ; returns value.
# output 110000 l M-1

###

biological target: Prothrombin (Homo sapiens); test: Apparent association constant against Coagulation factor II
experimental_readout: K ass

Answered cases to consult:
1. CC(C)(C)c1ccc(C(=O)Nc2ccccc2NC(=O)c2cccc(F)c2)cc1; 0 l M-1
2. CCCCCCOc1ccc(C(=O)Nc2ccccc2NC(=O)c2ccc(OC)cc2)cc1; 0 l M-1
3. COc1ccc(C(=O)Nc2cc(C(=O)O)ccc2NC(=O)c2ccc(C(C)(C)C)cc2)cc1; 80000 l M-1
4. COc1ccc(C(=O)Nc2ccc(C(=O)O)cc2NC(=O)c2ccc(C(C)(C)C)cc2)cc1; 70000 l M-1
5. COc1ccc(C(=O)Nc2ccc(O)cc2NC(=O)c2ccc(N(C)C)cc2)cc1; 50000 l M-1

Okay, now this compound:
# input // map `COc1ccc(C(=O)Nc2ccccc2NC(=O)c2ccc(C(=O)C(F)(F)F)cc2)cc1` to recorded K ass (system: Prothrombin (Homo sapiens))
# output 0 l M-1

###

Measured K ass values are reported for all entries that follow.
target: Prothrombin (Homo sapiens); experiment: Apparent association constant against Coagulation factor II

1. COc1ccc(C(=O)Nc2cccc(NC(=O)c3ccc(OC)cc3)c2)cc1; 0 l M-1
2. COc1ccc(C(=O)Nc2ccccc2NC(=O)c2ccc(SC)cc2)cc1; 20000 l M-1
3. COc1ccc(C(=O)Nc2ccc(C(=O)O)cc2NC(=O)c2ccc(OC)cc2)cc1; 20000 l M-1
4. COc1ccc(C(=O)Nc2ccc(O)cc2NC(=O)c2ccc(OC)cc2)cc1; 20000 l M-1
5. COc1ccc(C(=O)Nc2ccccc2NC(=O)c2ccc(OC)cc2)cc1; 20000 l M-1
6. CCc1ccc(C(=O)Nc2ccccc2NC(=O)c2ccc(C(C)(C)C)cc2)cc1; 0 l M-1
7. CCOc1ccc(C(=O)Nc2ccccc2NC(=O)c2ccc(OC)cc2)cc1; 0 l M-1
8. COc1ccc(C(=O)Nc2ccccc2NC(=O)c2ccc(OC(C)(C)C)cc2)cc1; 10000 l M-1

# input Give its K ass value. Item: COc1ccc(C(=O)Nc2ccccc2NC(=O)c2ccc([S+](C)[O-])cc2)cc1 (stereo not given)
# output 0 l M-1

# input What does the record list as K ass for `C=Cc1cccc(C(=O)Nc2ccccc2NC(=O)c2ccc(C(C)(C)C)cc2)c1` ?
# output 0 l M-1

###

molecular target: Coagulation factor X (Homo sapiens) (UniProt P00742); experiment: Apparent association constant against coagulation factor X
Sequence (P00742 41-179 limits assumed): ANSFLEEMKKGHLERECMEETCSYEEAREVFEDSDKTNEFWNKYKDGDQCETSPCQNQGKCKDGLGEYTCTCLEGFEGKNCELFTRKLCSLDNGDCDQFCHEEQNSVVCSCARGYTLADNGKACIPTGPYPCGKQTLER
Sequence (P00742 235-488 limits assumed): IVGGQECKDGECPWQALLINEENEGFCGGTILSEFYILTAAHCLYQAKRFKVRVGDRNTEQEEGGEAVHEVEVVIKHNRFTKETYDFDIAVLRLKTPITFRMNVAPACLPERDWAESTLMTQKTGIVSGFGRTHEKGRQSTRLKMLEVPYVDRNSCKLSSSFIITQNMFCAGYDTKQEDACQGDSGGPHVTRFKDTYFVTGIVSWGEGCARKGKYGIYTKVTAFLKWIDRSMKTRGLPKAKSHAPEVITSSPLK
experimental_readout: K ass

Consider the worked cases shown below.
1) COc1ccc(C(=O)Nc2ccccc2NC(=O)c2ccc(S(C)(=O)=O)cc2)cc1; 530000 l M-1
2) CCCOc1ccc(C(=O)Nc2ccccc2NC(=O)c2ccc(OC)cc2)cc1; 440000 l M-1
3) COc1ccc(C(=O)Nc2ccccc2N(C)C(=O)c2ccc(OC)cc2)cc1; 20000 l M-1
4) COc1ccc(C(=O)Nc2ccc(OC)cc2NC(=O)c2ccc(OC)cc2)cc1; 1.25e+06 l M-1
5) COc1ccc(C(=O)Nc2c(OC)ccc(OC)c2NC(=O)c2ccc(OC)cc2)cc1; 770000 l M-1

# context switch: different compound, same K ass
# input Using the record for `COc1ccc(C(=O)Nc2ccccc2NC(=O)c2ccc(C(C)(C)C)cc2)cc1` , report its K ass.
# output 7.31e+06 l M-1

###

molecular target: Coagulation factor X (Homo sapiens) (UniProt P00742); assay: Apparent association constant against coagulation factor X
Each entry below carries its reported K ass.

# input Given the compound `CC(C)(C)c1ccc(C(=O)Nc2ccccc2NC(=O)c2ccc(Cl)cc2)cc1` , what is its reported K ass?
# output 2.92e+06 l M-1

# input Fill in the blank: the reported K ass of `CCc1ccc(C(=O)Nc2ccccc2NC(=O)c2ccc(C(C)(C)C)cc2)cc1` is ____.
# output 10000 l M-1

# input Quick one: K ass of `CC(C)(C)c1ccc(C(=O)Nc2ccccc2NC(=O)c2ccc(OC(F)(F)F)cc2)cc1` ?
# output 0 l M-1

# input Any idea what K ass was measured for `COc1ccc(C(=O)Nc2cc(NS(C)(=O)=O)ccc2NC(=O)c2ccc(C(C)(C)C)cc2)cc1` ?
# output 1.3e+07 l M-1

# input K ass lookup needed for `COc1ccc(C(=O)Nc2ccccc2NC(=O)c2ccc(-c3ccccc3)cc2)cc1` , thanks.
# output 1.1e+06 l M-1

# input Looking for the measured K ass of `CCCCOc1ccc(C(=O)Nc2ccccc2NC(=O)c2ccc(OC)cc2)cc1` , can you help?
# output 80000 l M-1

###

biological target: Prothrombin (Homo sapiens) (UniProt P00734); assay: Apparent association constant against Coagulation factor II
This section presents compounds with their documented K ass values.

The cases that follow already have their K ass on record.
1. COc1ccc(C(=O)Nc2ccccc2N(C)C(=O)c2ccc(OC)cc2)cc1; 0 l M-1
2. COc1ccc(C(=O)N(C)c2ccccc2N(C)C(=O)c2ccc(OC)cc2)cc1; 0 l M-1
3. COc1ccc(C(=O)Nc2ccccc2NC(=O)c2ccc(OC(C)C)cc2)cc1; 40000 l M-1
4. COc1ccc(C(=O)Nc2ccccc2NC(=O)c2ccc(S(C)(=O)=O)cc2)cc1; 0 l M-1
5. CCCOc1ccc(C(=O)Nc2ccccc2NC(=O)c2ccc(OC)cc2)cc1; 0 l M-1
6. COc1ccc(C(=O)Nc2ccccc2NC(=O)c2ccc(C(C)C)cc2)cc1; 80000 l M-1
7. C=Cc1ccc(C(=O)Nc2ccccc2NC(=O)c2ccc(C(C)(C)C)cc2)cc1; 10000 l M-1
8. COc1ccc(C(=O)Nc2ccccc2NC(=O)c2ccc(S(=O)(=O)N(C)C)cc2)cc1; 0 l M-1
9. Cc1ccc(C(=O)Nc2ccccc2NC(=O)c2ccc(C(C)(C)C)cc2)cc1; 0 l M-1
10. CC(C)(C)c1ccc(C(=O)Nc2ccccc2NC(=O)c2ccc(OC(F)(F)F)cc2)cc1; 0 l M-1

# input Entry `COc1ccc(C(=O)Nc2ccccc2NC(=O)c2ccc(OC)cc2Cl)cc1` has what K ass?
# output 30000 l M-1

# input For the compound `CC(C)(C)c1ccc(C(=O)Nc2ccccc2NC(=O)c2ccc(F)cc2)cc1` , what K ass is on record?
# output 0 l M-1

# input State the recorded K ass for this entry: `COc1ccc(C(=O)Nc2ccccc2NC(=O)c2ccc(N(C)C)cc2)cc1`
# output 50000 l M-1

# input Item under review: `CCCCOc1ccc(C(=O)Nc2ccccc2NC(=O)c2ccc(OC)cc2)cc1` . Reported K ass?
# output 0 l M-1

# input Given the compound `COc1cccc(C(=O)Nc2ccccc2NC(=O)c2ccc(C(C)(C)C)cc2)c1` , what is its reported K ass?
# output 0 l M-1

# input What value of K ass has been recorded for this entry: `COc1ccc(C(=O)Nc2cccc(O)c2NC(=O)c2ccc(OC)cc2)cc1`
# output 10000 l M-1

# input Give the measured K ass of `CC(C)(C)c1ccc(C(=O)Nc2ccccc2NC(=O)c2ccccc2)cc1` .
# output 70000 l M-1

# input Could you tell me which K ass is on file for `COc1ccc(C(=O)Nc2ccccc2NC(=O)c2ccc(OC)cc2OC)cc1` ?
# output 20000 l M-1

# input Form field: reported K ass of `COc1ccc(C(=O)Nc2ccccc2NC(=O)c2ccc(C(C)(C)C)cc2)cc1`
# output 50000 l M-1

# input Report K ass for `COc1ccc(C(=O)Nc2ccccc2NC(=O)c2ccc(-c3ccccc3)cc2)cc1` please.
# output 0 l M-1

# input For the compound `COc1ccc(C(=O)Nc2cc(O)ccc2NC(=O)c2ccc(C(C)(C)C)cc2)cc1` , what K ass is on record?
# output 50000 l M-1

###

K ass values for the compounds below.
target: Prothrombin (Homo sapiens); assay: Apparent association constant against Coagulation factor II

Please review the entries below; each comes with its answer.
1) CC(C)(C)c1ccc(C(=O)Nc2ccccc2NC(=O)c2ccc(Cl)cc2)cc1; 50000 l M-1
2) COc1ccc(C(=O)Nc2cc(NS(C)(=O)=O)ccc2NC(=O)c2ccc(C(C)(C)C)cc2)cc1; 130000 l M-1
3) COc1ccc(C(=O)Nc2ccccc2NC(=O)c2ccc(Oc3ccccc3)cc2)cc1; 0 l M-1

# input Lab request: please report K ass under test system Prothrombin (Homo sapiens) for `COc1ccc(C(=O)Nc2c(OC)ccc(OC)c2NC(=O)c2ccc(OC)cc2)cc1`
# output 10000 l M-1
